- target.entity: T1, CD96 extracellular region with His tag (CD96-His) (human, UniProt P40200 22-519)
- T1 construct: also called CD96-ECD-His; Bio-CD96-His (biotin-labelled form)
- T1 sequence: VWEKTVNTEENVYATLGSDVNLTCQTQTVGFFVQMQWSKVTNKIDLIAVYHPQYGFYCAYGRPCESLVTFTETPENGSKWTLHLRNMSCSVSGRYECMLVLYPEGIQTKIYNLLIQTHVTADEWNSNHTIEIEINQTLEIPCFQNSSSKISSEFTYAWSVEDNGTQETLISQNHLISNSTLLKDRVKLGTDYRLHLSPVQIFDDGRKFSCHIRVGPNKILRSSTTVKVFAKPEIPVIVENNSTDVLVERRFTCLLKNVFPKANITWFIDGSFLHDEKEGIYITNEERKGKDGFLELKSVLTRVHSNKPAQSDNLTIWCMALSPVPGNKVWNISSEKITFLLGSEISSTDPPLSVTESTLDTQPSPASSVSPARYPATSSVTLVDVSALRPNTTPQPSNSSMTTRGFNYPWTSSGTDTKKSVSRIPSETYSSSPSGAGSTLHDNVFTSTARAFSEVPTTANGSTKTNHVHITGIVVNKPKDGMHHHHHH
- test.method.notes: SPR (Biacore), antibody captured, CD96-ECD-His as mobile phase
Each record here notes measured Kd.
Supply the numeric figure in nM, leaving out any unit text.

>  <binder>
h1718-018 (antibody, V domains shown, Only variable regions are tied to this name) VH: EVQLVQSGAEVKKPGASVKVSCKASGYTITDYNMNWVKQAPGQRLEWIGVINPSYGITDYNQNFKDKVTITVDTSASTAYMELSSLRSEDTAVYYCAIQLRLPGYFDVWGQGTTVTVSS VL: DIQMTQSPSSLSASVGDRVTITCKASQDINQYLNWFQQKPGKAPKTLIYRANRLVDGVPSRFSGSGSGQDYTLTISSLQPEDFATYYCLKYDEFPYTFGGGTKVEIK

>  <recorded.endpoint>
Kd

>  <test.result>
3.82

$$$$
>  <binder>
h1721-004 (antibody, V domains shown, Only variable regions are tied to this name) VH: EVTLKESGPVLVKPTETLTLTCTVSGFSLSSYGVNWVRQPPGKGLEWLGVIWGDGSTNYHSALISRLTISKDTSKSQVVLTLTNMDPVDTATYYCAKNYFYGSRYGYAMDSWGQGTTVTVSS VL: DIQMTQSPSSLSASVGDRVTITCRASENIYSSLAWYQQKPGKAPKLLIYNAKTLIEGVPSRFSGSGSGTDFTLTISSLQPEDFATYYCQHHYGTPYTFGGGTKVEIK

>  <recorded.endpoint>
Kd

>  <test.result>
2

$$$$
>  <binder>
h1721-001 (antibody, V domains shown, Only variable regions are tied to this name) VH: EVTLKESGPVLVKPTETLTLTCTVSGFSLSSYGVNWIRQPPGKALEWLAVIWGDGSTNYHSALISRLTISKDTSKSQVVLTMTNMDPVDTATYYCARNYFYGSRYGYAMDSWGQGTTVTVSS VL: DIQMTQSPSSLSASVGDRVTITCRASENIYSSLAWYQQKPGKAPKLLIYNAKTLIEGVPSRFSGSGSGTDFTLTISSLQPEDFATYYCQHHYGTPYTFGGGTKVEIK

>  <recorded.endpoint>
Kd

>  <test.result>
2.73

$$$$
>  <binder>
h1719-013 (antibody, V domains shown, Only variable regions are tied to this name) VH: EVTLKESGPVLVKPTETLTLTCTVSGFSLSSYGVSWVRQPPGKGLEWLGVIWGDGNTNYHSVLISRLTISKDTSKSQVVLTLTNMDPVDTATYYCAKQNYYGSRYGYPLDYWGQGTTVTVSS VL: DIQMTQSPSSVSASVGDRVTITCKATQDVGTAVAWYQQKPGKSPKLLIYWASTRHTGVPERFSGSGSGTDFTLTISSLQPEDFATYFCQQYGSSVLTFGGGTKVEIK

>  <recorded.endpoint>
Kd

>  <test.result>
19.8

$$$$

Kindly consider the entry below.
Requested read-out: Kd. Entry: h1718-019 (antibody, V domains shown, Only variable regions are tied to this name) VH: EVQLVQSGAEVKKPGASVKVSCKASGYTITDYNMNWVKQAPGQRLEWIGVINPSYGITDYNQNFKDKVTITVDTSASTAYMELSSLRSEDTAVYYCAIQLRLPGYFDVWGQGTTVTVSS VL: DIQMTQSPSSLSASVGDRVTITCKASQDINTYLNWFQQKPGKAPKTLIYRANRLVDGVPSRFSGSGSGQDYTLTISSLQPEDFATYYCLKYDEFPYTFGGGTKVEIK
3.7
